experiment: Human PLM; settings: 37° C., up to 2 hours
Entries and their not cleaved values follow.
experimental-endpoint: not cleaved (% remaining at 2 hours)

- NMeIVLSLDvPIKLK*KILLEQEKQKEQREQAETNAibQILAQV-NH2 [218]: 99
- Ac-IVLSLDvPIKLK*KILLEQEKQKKQREQAETNAbuQILAQV-NH2: 102
- Ac-IVLSLDvPIKαMELK*KILLEQEKQKKQREQAETNAibQILAQV-NH2: 97
- NMeIVLSLDvPIKLK*KILLEQEKQKEQREQAETNAibQILAQV-NH2 [233]: 100
- NMeIVLSLDvPIKLK*KILLEQEKQKKQREQAETNAibQILAQV-NH2: 91
- Ac-IVLSLDvPIKLK*KILLEQEKQKKQREQAETN4-PipQILAQV-NH2: 104
- Ac-IVLSLDvPIKLK*KILLEQEKQKKQREQAETNAibQILAQV-NH2: 93
- Pentanoyl-VLSLDvPIKLK*KILLEQEKQKKQREQAETNAibQILAQV-NH2: 101
- Ac-IVLSLDvPIKLK*KILLEQEKQKEQREQAETNAibQILAQV-NH2: 99
